This collection of values is drawn from patent US20070202163A1.

Test: in vivo
Conditions: New Zealand white, rabbit, im, 0.3 mg
readout_label: Tmax (min)
Reply numerically in min, unit not repeated.

Reported Tmax, compound CNC[C@H](O)c1ccc(O)c(O)c1 [Epinephrine] : ____
21

###

Assay: in vivo
Conditions: both, NZW, rabbit, plasma, im, 0.3 mg
readout_label: half-life (h)
Answer format: numeric, h implied, no suffix.

Requested read-out: half-life. Entry: CNC[C@H](O)c1ccc(O)c(O)c1 [Epinephrine]
1.52

###

Assay: in vivo
Settings: New Zealand white, rabbit, im, 0.3 mg
readout_label: Cmax (ng/mL)
Give the value, in units of ng/mL, as a plain number.

Suppose we examine the compound CNC[C@H](O)c1ccc(O)c(O)c1 [Epinephrine] ; what Cmax value has been reported?
50.3
